Overview of reported inhibition at 2 µM across a group of compounds:
# TARGET DESC: human Cereblon WT GST-tagged protein (Homo sapiens)
# Construct: purchased CISBIO 64BDCRBNPEH
# ASSAY METHOD TEXT: CRBN-binding affinity, HTRF (CEREBLON BINDING kit)
# TEST CONDITIONS: read-out: Inhibition Rate at 2 µM (%)

| COMPOUND | inhibition at 2 µM |
| --- | --- |
| O=C1CCC(N2Cc3cc(CN4CCN(C(=O)C5=C(c6ccc(F)cc6)CCCC5)CC4)ccc3C2=S)C(=O)N1 (stereo not shown) | 80 to 100% |
| O=C1CCC(N2Cc3c(CN4CC=C(c5ncnc6sc(-c7ccccc7)cc56)CC4)cccc3C2=S)C(=O)N1 (stereo not shown) | 60 to 80% |
| O=C1CCC(N2Cc3c(CN4CCN(c5ncccn5)CC4)cccc3C2=S)C(=O)N1 (stereo not shown) | 80 to 100% |
| O=C1CCC(N2Cc3c(CN4CCN(c5ncc(C(F)(F)F)cc5Cl)CC4)cccc3C2=S)C(=O)N1 (stereo not shown) | 60 to 80% |
| O=C1CCC(N2Cc3cc(CN4CCN(c5cccc(C(F)(F)F)n5)CC4)ccc3C2=S)C(=O)N1 (stereo not shown) | 80 to 100% |
| O=C1CCC(N2Cc3cc(CN4CCN(C(c5cccnc5)c5cccnc5)CC4)ccc3C2=S)C(=O)N1 (stereo not shown) | 80 to 100% |
| O=C1CCC(N2Cc3c(CN4CCN(c5nc6c(c(N7CCNCC7)n5)SCC6)CC4)cccc3C2=S)C(=O)N1 (stereo not shown) | 80 to 100% |

---

# Test system: Human malignant melanoma cell line: A375
# ASSAY METHOD TEXT: Tumor cell proliferation inhibition (CellTiter-Meiluncell luminescent cell viability assay)
# TEST CONDITIONS: A-375, 96 h, read-out: Inhibition Rate at 500 nM (%)

| MOLECULE | TARGET DESC | inhibition at 0.5 µM |
| --- | --- | --- |
| Cc1sc2ncnc(C3=CCN(Cc4ccc5c(c4)CN(C4CCC(=O)NC4=O)C5=S)CC3)c2c1C (stereo not shown) | Human malignant melanoma cell line: A375 | 60 to 70% |
| O=C1CCC(N2Cc3cc(CN4CCN(c5nc(Cl)nc6ccsc56)CC4)ccc3C2=S)C(=O)N1 (stereo not shown) | Human malignant melanoma cell line: A375 | 50 to 60% |
| O=C1CCC(N2Cc3cc(CN4CC=C(c5ncnc6sccc56)CC4)ccc3C2=S)C(=O)N1 (stereo not shown) | Human malignant melanoma cell line: A375 | 40 to 50% |
| CC(C)c1cc2c(C3=CCN(Cc4ccc5c(c4)CN(C4CCC(=O)NC4=O)C5=S)CC3)ncnc2s1 (stereo not shown) | Human malignant melanoma cell line: A375 | 80 to 100% |

---

# TARGET DESC: human Cereblon WT GST-tagged protein (Homo sapiens, UniProt Q96SW2)
# Construct: purchased CISBIO 64BDCRBNPEH
# Sequence (Q96SW2 whole entry): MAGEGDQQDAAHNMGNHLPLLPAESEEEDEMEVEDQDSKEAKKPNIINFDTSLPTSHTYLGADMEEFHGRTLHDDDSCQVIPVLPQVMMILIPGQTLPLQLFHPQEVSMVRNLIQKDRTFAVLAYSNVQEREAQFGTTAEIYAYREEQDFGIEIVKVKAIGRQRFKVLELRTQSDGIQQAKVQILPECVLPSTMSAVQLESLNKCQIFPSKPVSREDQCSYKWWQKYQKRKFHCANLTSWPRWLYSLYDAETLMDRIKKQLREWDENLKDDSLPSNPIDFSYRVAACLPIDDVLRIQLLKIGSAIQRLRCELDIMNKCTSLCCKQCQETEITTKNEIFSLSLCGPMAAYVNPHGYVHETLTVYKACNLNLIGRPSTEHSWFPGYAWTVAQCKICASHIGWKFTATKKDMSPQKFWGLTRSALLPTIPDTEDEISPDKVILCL
# ASSAY METHOD TEXT: CRBN-binding affinity, HTRF (CEREBLON BINDING kit)
# TEST CONDITIONS: read-out: Inhibition Rate at 2 µM (%)
# Description: The CEREBLON BINDING kits (specification: 10,000 tests; product number: Catalog # 64BDCRBNPEH; CISBIO company) was used to determine the CRBN binding ability of the compounds to be tested through a HTRF method (homogeneous time-resolved fluorescence). The specific methods are as follows: • 1. […] Specifically, diluent #9 (1X) solution was used as the diluent, and multiple concentration gradients were set. […] Then, 2.5 µL of human Cereblon WT GST-tagged protein solution was added to each well. […]

| COMPOUND | inhibition at 2 µM |
| --- | --- |
| O=C1CCC(N2Cc3cc(CN4CCN(c5ccnc(Cl)c5Cl)CC4)ccc3C2=S)C(=O)N1 (stereo not shown) [GT-09354] | 80 to 100% |
| O=C1CCC(N2Cc3cc(CN4CCN(c5ccsc5)CC4)ccc3C2=S)C(=O)N1 (stereo not shown) [GT-08169] | 80 to 100% |
| O=C1CCC(N2Cc3c(CN4CCN(c5c(F)cncc5Cl)CC4)cccc3C2=S)C(=O)N1 (stereo not shown) [GT-08802] | 80 to 100% |
| O=C1CCC(N2Cc3cc(CN4CCN(C(c5ccc(Cl)cc5)c5ccc(Cl)cc5)CC4)ccc3C2=S)C(=O)N1 (stereo not shown) [GT-07737] | 53 to 60% |
| Cc1nc(C2=CCN(Cc3cccc4c3CN(C3CCC(=O)NC3=O)C4=S)CC2)c2c3c(sc2n1)CCC3 (stereo not shown) [GT-08964] | 80 to 100% |
| O=C1CCC(N2Cc3cc(CN4CCN(c5cncc(Cl)c5Cl)CC4)ccc3C2=S)C(=O)N1 (stereo not shown) [GT-09231] | 80 to 100% |
| O=C1CCC(N2Cc3cc(CN4CC5CCC(C4)N5C(c4ccccc4)c4ccccc4)ccc3C2=S)C(=O)N1 (stereo not shown) [GT-07849] | 60 to 80% |
| COc1cccc(N2CCN(Cc3ccc4c(c3)CN(C3CCC(=O)NC3=O)C4=S)CC2)c1 (stereo not shown) [GT-08237] | 80 to 100% |
| Cc1cc(C2CCN(Cc3ccc4c(c3)CN(C3CCC(=O)NC3=O)C4=S)CC2)cs1 (stereo not shown) [GT-08325] | 80 to 100% |
| Cc1nc(C2=CCN(Cc3ccc4c(c3)CN(C3CCC(=O)NC3=O)C4=S)CC2)c2c3c(sc2n1)CCC3 (stereo not shown) [GT-09326] | 80 to 100% |
| O=C1CCC(N2Cc3cc(CN4CCN(C(c5ccccc5)c5ccncc5)CC4)ccc3C2=S)C(=O)N1 (stereo not shown) [GT-07733] | 80 to 100% |
| O=C1CCC(N2Cc3cc(CN4CC=C(c5ncc6ccsc6n5)CC4)ccc3C2=S)C(=O)N1 (stereo not shown) [GT-09327] | 80 to 100% |
| Cc1csc2ncnc(C3=CCN(Cc4ccc5c(c4)CN(C4CCC(=O)NC4=O)C5=S)CC3)c12 (stereo not shown) [GT-09315] | 80 to 100% |
| O=C1CCC(N2Cc3cc(CN4CCN(c5noc6cc(F)ccc56)CC4)ccc3C2=S)C(=O)N1 (stereo not shown) [GT-09257] | 80 to 100% |
| O=C1CCC(N2Cc3cc(CN4C[C@H]5C[C@@H]4CN5c4cccc(Cl)c4Cl)ccc3C2=S)C(=O)N1 (stereo partly shown) [GT-08477] | 80 to 100% |
| CC1(C)CCC(CN2CC3CCC2CN3Cc2cccc3c2CN(C2CCC(=O)NC2=O)C3=S)=C(c2ccc(Cl)cc2)C1 (stereo not shown) [GT-08302] | 80 to 100% |
